- target desc: Nuclear receptor ROR-gamma (Homo sapiens) (UniProt P51449)
- procedure text: qHTS assay to identify small molecule antagonists of the retinoid-related orphan receptor gamma (ROR-gamma) signaling pathway (AID 1159521; note: nearly all actives have a fitted effect of over 50% in size; note: potency is the fitted concentration of half-maximal effect)
- condition set: Tet-on RORgamma CHO cells, RORE-luciferase, 16 h; series mostly up to 92.4 µM
Inconclusive results are not listed. Active and inactive are the calls of the source. Calls come from the whole dose curve; as a rule, active = well fitted inhibition curve with a large enough effect in the repeat runs; inconclusive = weak or mixed curves, or effect the other way; inactive = no such curve, though single readings can be large or run the other way.
readout name: Potency

[
  {
    "molecule smiles": "CCOP(=S)(OCC)O/N=C(\\C#N)c1ccccc1",
    "readout name": "Potency",
    "result": "inactive"
  },
  {
    "molecule smiles": "CCCCCCCCC(=O)NCc1ccc(O)c(OC)c1",
    "readout name": "Potency",
    "result": "inactive"
  },
  {
    "molecule smiles": "Nc1ccc(-c2ccc(N)c(N)c2)cc1N",
    "readout name": "Potency",
    "result": "27.2 µM (active)"
  },
  {
    "molecule smiles": "O=Cc1ccco1",
    "readout name": "Potency",
    "result": "inactive"
  },
  {
    "molecule smiles": "O=C(O)C(F)(F)C(F)(F)C(F)(F)C(F)(F)C(F)(F)C(F)(F)C(F)(F)F",
    "readout name": "Potency",
    "result": "inactive"
  },
  {
    "molecule smiles": "Oc1cc(Cl)c(Cl)cc1Cl",
    "readout name": "Potency",
    "result": "48.2 µM (active)"
  },
  {
    "molecule smiles": "O=C(NC(=O)c1c(F)cccc1F)Nc1ccc(Cl)cc1",
    "readout name": "Potency",
    "result": "inactive"
  },
  {
    "molecule smiles": "Cc1cc(C)cc(C)c1",
    "readout name": "Potency",
    "result": "inactive"
  }
]

Q. What Potency value was documented for this molecule, NNC(N)=S ?
A. inactive

Q. For CC(C)c1ccc(CO)cc1 then?
A. inactive

Q. For Nc1ccc(Cl)c(Cl)c1 then?
A. inactive

Q. For Cc1ccc(OP(=O)(Oc2ccc(C)cc2)Oc2ccc(C)cc2)cc1 then?
A. 12.2 µM (active)

Q. For Cc1ccc(N)c(N)c1 then?
A. inactive

Q. For C1=Cc2cccc3cccc1c23 then?
A. inactive

Q. For CNC(=O)N(C)c1nnc(C(C)(C)C)s1 then?
A. inactive

----------
- procedure text: qHTS assay to identify small molecule antagonists of the peroxisome proliferator-activated receptor delta (PPARd) signaling pathway - cell viability counter screen (AID 743213); note: % is set by controls: 0 for no effect and ±100 for the full control effect; nearly all actives have a fitted effect of over 50% in size
- condition set: PPARd-bla HEK293H viability, CellTiter-Glo luminescence, 17 h; series mostly up to 62 µM
Records with an inconclusive call do not appear. The source made the active and inactive calls. Calls come from the whole dose curve; as a rule, active = well fitted cell-killing curve with a large enough effect in the repeat runs; inconclusive = weak or mixed curves; inactive = no such curve, though single readings can be large or run the other way.
readout name: outcome

[
  {
    "molecule": "CCN(N=O)C(N)=O",
    "result": "inactive"
  },
  {
    "molecule": "Cc1ccc2c(c1N)C(=O)c1ccccc1C2=O",
    "result": "inactive"
  },
  {
    "molecule": "CCC(C)c1ccc(O)cc1 (stereo not drawn)",
    "result": "inactive"
  }
]

----------
- target desc: Estrogen receptor beta (Homo sapiens) (UniProt Q92731)
- Sequence (Q92731 whole entry, looked up): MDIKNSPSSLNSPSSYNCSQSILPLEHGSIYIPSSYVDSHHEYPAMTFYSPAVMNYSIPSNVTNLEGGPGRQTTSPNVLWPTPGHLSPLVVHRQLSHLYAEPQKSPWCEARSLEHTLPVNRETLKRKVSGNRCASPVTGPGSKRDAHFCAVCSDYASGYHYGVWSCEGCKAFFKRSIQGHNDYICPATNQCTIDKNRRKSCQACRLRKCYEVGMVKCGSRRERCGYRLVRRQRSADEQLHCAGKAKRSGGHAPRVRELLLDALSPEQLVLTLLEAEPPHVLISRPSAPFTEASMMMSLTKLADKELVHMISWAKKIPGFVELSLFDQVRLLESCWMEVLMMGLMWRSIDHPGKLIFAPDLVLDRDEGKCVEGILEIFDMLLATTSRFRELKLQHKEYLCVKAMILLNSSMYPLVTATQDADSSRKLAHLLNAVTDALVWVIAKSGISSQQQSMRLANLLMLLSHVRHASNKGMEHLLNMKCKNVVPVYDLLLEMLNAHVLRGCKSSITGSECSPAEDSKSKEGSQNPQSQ
- procedure text: qHTS assay to identify small molecule antagonists of the estrogen receptor beta (ER-beta) signaling pathway (AID 1259378)
- condition set: ER-beta-UAS-bla HEK293T, beta-lactamase FRET ratio, 16 h; series mostly up to 92.4 µM
Inconclusive results are not listed. Active and inactive are the calls of the source. Calls come from the whole dose curve; as a rule, active = well fitted inhibition curve with a large enough effect in the signal ratio in the repeat runs (not every such curve was filed as active); inconclusive = weak or mixed curves, or effect the other way; inactive = no such curve, though single readings can be large or run the other way; the % refers to the signal ratio.
Bench note: report the call from true = active, false = inactive

Below, 8 compounds whose answers are already recorded.
[
  {
    "compound": "C#C[C@]1(O)CC[C@H]2[C@@H]3CCC4=CC(=O)CC[C@]4(C)[C@H]3CC[C@@]21C",
    "target desc": "Estrogen receptor beta (Homo sapiens) (UniProt Q92731)",
    "class assignment": "false"
  },
  {
    "compound": "CN(C)c1ccc(C(=O)c2ccc(N(C)C)cc2)cc1",
    "target desc": "Estrogen receptor beta (Homo sapiens) (UniProt Q92731)",
    "class assignment": "false"
  },
  {
    "compound": "Brc1ccc(Oc2cc(Br)c(Br)cc2Br)c(Br)c1",
    "target desc": "Estrogen receptor beta (Homo sapiens) (UniProt Q92731)",
    "class assignment": "false"
  },
  {
    "compound": "Nn1cnnc1",
    "target desc": "Estrogen receptor beta (Homo sapiens) (UniProt Q92731)",
    "class assignment": "false"
  },
  {
    "compound": "CCOCN(C(=O)CCl)c1c(C)cccc1CC",
    "target desc": "Estrogen receptor beta (Homo sapiens) (UniProt Q92731)",
    "class assignment": "true"
  },
  {
    "compound": "Oc1cc(Cl)c(Cl)cc1Cl",
    "target desc": "Estrogen receptor beta (Homo sapiens) (UniProt Q92731)",
    "class assignment": "false"
  },
  {
    "compound": "CC1(C)C(C=C(Cl)Cl)C1C(=O)OC(C#N)c1cccc(Oc2ccccc2)c1 (stereo unspecified)",
    "target desc": "Estrogen receptor beta (Homo sapiens) (UniProt Q92731)",
    "class assignment": "false"
  },
  {
    "compound": "O=c1oc2ccccc2c(O)c1C(CC(O)c1ccc(-c2ccc(Br)cc2)cc1)c1ccccc1 (stereo unspecified)",
    "target desc": "Estrogen receptor beta (Homo sapiens) (UniProt Q92731)",
    "class assignment": "true"
  }
]

Q. Hi team, can someone confirm the assay call for CC(C)N(C(=O)SCC(Cl)=C(Cl)Cl)C(C)C ?
A. false

Q. For CCCCC(CC)COC(=O)Cl (stereo unspecified) then?
A. false

Q. For O=[N+]([O-])c1c(Cl)c(Cl)c(Cl)c(Cl)c1Cl then?
A. false

Q. For C=C(C)C(=O)OCC1CO1 (stereo unspecified) then?
A. false

Q. For CCC(C)(C)c1ccc(O)cc1 then?
A. false

----------
- procedure text: qHTS assay for small molecule agonists of the antioxidant response element (ARE) signaling pathway (AID 743202); note: % is set by controls: 0 for no effect and ±100 for the full control effect
- condition set: HepG2 ARE-bla reporter, beta-lactamase FRET, 16 h; series mostly up to 73.3 µM
Inconclusive results are not listed. Active and inactive are the calls of the source. The call rests on the fitted dose curve; in most records, active means well fitted activation curve with a large enough effect in the signal ratio in the repeat runs (not every such curve was filed as active); inconclusive means weak or mixed curves, or effect the other way; inactive means no such curve, though single readings can be large or run the other way; the % refers to the signal ratio.
Bench note: report the call from Yes = active, No = inactive

[
  {
    "compound": "c1nc[nH]n1",
    "class assignment": "No"
  },
  {
    "compound": "S=C1NCCN1",
    "class assignment": "No"
  },
  {
    "compound": "O=C(NC(=O)c1c(F)cccc1F)Nc1ccc(Cl)cc1",
    "class assignment": "No"
  },
  {
    "compound": "COc1ccc(C=O)cc1",
    "class assignment": "No"
  }
]

Q. Hi team, can someone confirm the assay call for Nn1cnnc1 ?
A. No

Q. For OCC(O)CO then?
A. No

Q. For c1ccc(NNc2ccccc2)cc1 then?
A. No

Q. For COP(=O)(OC)OC then?
A. No

Q. For CCCCN(CC)c1c([N+](=O)[O-])cc(C(F)(F)F)cc1[N+](=O)[O-] then?
A. No

----------
- procedure text: qHTS assay to identify small molecule antagonists of the thyroid receptor (TR) signaling pathway - cell viability counter screen (AID 743064); note: nearly all actives have a fitted effect of over 50% in size
- condition set: GH3.TRE-Luc viability, CellTiter-Fluor, 24 h; series mostly up to 70.3 µM
Inconclusive results are not listed. The source made the active and inactive calls. The call rests on the fitted dose curve; in most records, active means well fitted cell-killing curve with a large enough effect in the repeat runs; inconclusive means weak or mixed curves, or effect the other way; inactive means no such curve, though single readings can be large or run the other way.
Bench note: report the call from 1 = active, 0 = inactive

[
  {
    "compound": "CCN(CC)C(=O)/C(Cl)=C(\\C)OP(=O)(OC)OC",
    "class assignment": 0
  },
  {
    "compound": "CCN(CC)N=O",
    "class assignment": 0
  },
  {
    "compound": "CC(O)CCO (stereo not drawn)",
    "class assignment": 0
  }
]

Q. Hi team, can someone confirm the assay call for Cc1cc(Cl)ccc1OCCCC(=O)O ?
A. 0

Q. For O=C1C=CC(=O)C=C1 then?
A. 0

Q. For C[C@]12CCC(=O)C[C@@H]1CC[C@@H]1[C@@H]2CC[C@]2(C)[C@@H](O)CC[C@@H]12 then?
A. 0

Q. For C#CCOS(=O)OC1CCCCC1Oc1ccc(C(C)(C)C)cc1 (stereo not drawn) then?
A. 1

Q. For CCC(C)c1cc([N+](=O)[O-])cc([N+](=O)[O-])c1O (stereo not drawn) then?
A. 1

Q. For CCCCC(CC)COC(=O)Cl (stereo not drawn) then?
A. 0

Q. For CC(C)C(=O)OCC(C)(C)C(OC(=O)C(C)C)C(C)C (stereo not drawn) then?
A. 0

Q. For OCC(O)CO then?
A. 0

Q. For C#C[C@]1(O)CC[C@H]2[C@@H]3CCC4=CC(=O)CC[C@]4(C)[C@H]3CC[C@@]21C then?
A. 0

Q. For CNC(=O)Oc1cccc2c1OC(C)(C)O2 then?
A. 0
